Molecular target: Serine/threonine-protein kinase 24 (Homo sapiens)
Sequence (Q9Y6E0 whole entry): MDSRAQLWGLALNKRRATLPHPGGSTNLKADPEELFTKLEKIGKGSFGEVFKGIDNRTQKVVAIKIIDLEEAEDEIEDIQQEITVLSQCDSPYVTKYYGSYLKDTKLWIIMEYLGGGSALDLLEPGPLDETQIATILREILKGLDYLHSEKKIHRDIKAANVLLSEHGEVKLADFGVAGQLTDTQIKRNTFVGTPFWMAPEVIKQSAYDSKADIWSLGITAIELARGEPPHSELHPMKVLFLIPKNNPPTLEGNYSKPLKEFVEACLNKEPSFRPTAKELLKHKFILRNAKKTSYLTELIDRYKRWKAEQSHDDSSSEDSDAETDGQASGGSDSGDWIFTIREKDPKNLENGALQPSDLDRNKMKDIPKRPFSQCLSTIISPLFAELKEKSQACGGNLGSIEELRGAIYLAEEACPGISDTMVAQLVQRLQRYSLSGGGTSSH
OBSERVABLE: IC50
# include the unit after the value

Per the records, this compound ( CN1C(=O)[C@@H](N2CCc3c(nn(Cc4ccccc4)c3Br)C2=O)COc2ccccc21 [TP-030-2] ) has IC50 equal to 1000 nM

* * *

Biological target: G protein-coupled receptor kinase 5 (Homo sapiens, UniProt P34947)
Sequence (P34947 whole entry): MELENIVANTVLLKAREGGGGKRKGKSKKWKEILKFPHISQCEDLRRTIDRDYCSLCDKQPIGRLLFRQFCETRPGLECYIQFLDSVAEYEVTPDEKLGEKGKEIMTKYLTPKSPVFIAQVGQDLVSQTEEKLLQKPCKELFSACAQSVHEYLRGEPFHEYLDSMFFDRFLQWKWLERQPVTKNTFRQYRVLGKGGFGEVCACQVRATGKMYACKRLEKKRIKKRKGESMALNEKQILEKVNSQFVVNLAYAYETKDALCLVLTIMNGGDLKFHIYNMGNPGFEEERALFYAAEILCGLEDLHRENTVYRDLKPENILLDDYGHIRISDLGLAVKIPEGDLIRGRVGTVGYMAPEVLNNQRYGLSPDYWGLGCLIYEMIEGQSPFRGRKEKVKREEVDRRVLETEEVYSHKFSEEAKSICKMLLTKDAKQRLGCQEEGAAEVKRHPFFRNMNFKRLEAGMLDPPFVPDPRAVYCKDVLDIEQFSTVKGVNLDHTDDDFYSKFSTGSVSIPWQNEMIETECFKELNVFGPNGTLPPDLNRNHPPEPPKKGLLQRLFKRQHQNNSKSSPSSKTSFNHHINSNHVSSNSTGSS
OBSERVABLE: IC50 (nM)
Answers are plain numbers, in nM.

Entry "CN1C(=O)[C@@H](N2CCc3c(nn(Cc4ccccc4)c3Br)C2=O)COc2ccccc21" : IC50 on G protein-coupled receptor kinase 5 (Homo sapiens, UniProt P34947) = 1000

Data provenance is ChEMBL document CHEMBL4507326.
